Value source: paper PMC6519479

test system: E. coli O157:H7; type: cell-based; conditions: O157:H7, 1 h
No end group written: not given here.
RESULT_TYPE: MIC E. coli O157:H7
Report field: quantity (unit follows the number).

Solved cases (4 shown):
# MIC E. coli O157:H7 (substance: VDKRPYLPRPRPPRRIYNR-NH2 [VDKRPYLPRPRPPRRIYNR-NH2] ) is 2.40 ± 0.56 µg/mL

# MIC E. coli O157:H7 (substance: VDKKPYRPRPRPPRRIYNR-NH2 [VDKKPYRPRPRPPRRIYNR-NH2] ) is 1.57 ± 0.68 µg/mL

# MIC E. coli O157:H7 (substance: VDKPPYRPRPRPPRRIYNR-NH2 [VDKPPYRPRPRPPRRIYNR-NH2] ) is 2.40 ± 0.56 µg/mL

# MIC E. coli O157:H7 (substance: VDKRPYRPRPRPPRRIYNR-NH2 [VDKRPYRPRPRPPRRIYNR-NH2] ) is 1.66 ± 0.82 µg/mL

Continuing:
# MIC E. coli O157:H7 (substance: VDKPPYKPRPRPPRRIYNR-NH2 [VDKPPYKPRPRPPRRIYNR-NH2] ) is 2.40 ± 0.56 µg/mL

# MIC E. coli O157:H7 (substance: VDKPPYLPRPRPPRRIYNR-NH2 [VDKPPYLPRPRPPRRIYNR-NH2, reference compound] ) is 3.14 ± 1.28 µg/mL

# MIC E. coli O157:H7 (substance: VDKKPYKPRPRPPRRIYNR-NH2 [VDKKPYKPRPRPPRRIYNR-NH2] ) is 1.57 ± 0.68 µg/mL

# MIC E. coli O157:H7 (substance: VDKKPYLPRPRPPRRIYNR-NH2 [VDKKPYLPRPRPPRRIYNR-NH2] ) is 2.40 ± 0.56 µg/mL
